Tested on: Streptococcus pyogenes
Assay: Antibacterial activity against Streptococcus pyogenes by broth micro-dilution method
Type: functional
Parameter MIC: see the listing below.
State just the number; it will be interpreted in µg/mL.

Example entries begin here.
[[record]]
chemical_smiles = "O=[N+]([O-])c1cc([N+](=O)[O-])c2cc1Oc1cc(cc(OS(=O)(=O)c3cccc4cccnc34)c1)Oc1cc(c([N+](=O)[O-])cc1[N+](=O)[O-])Oc1cc(cc(OS(=O)(=O)c3cccc4cccnc34)c1)O2"
test_readout = "MIC"
readout_unit = "µg/mL"
assay_value = 12.5

[[record]]
chemical_smiles = "Cc1cccc2sc(NC(=O)COc3cc4cc(c3)Oc3cc(c([N+](=O)[O-])cc3[N+](=O)[O-])Oc3cc(OCC(=O)Nc5nc6c(C)cccc6s5)cc(c3)Oc3cc(c([N+](=O)[O-])cc3[N+](=O)[O-])O4)nc12"
test_readout = "MIC"
readout_unit = "µg/mL"
assay_value = 6.25

[[record]]
chemical_smiles = "COc1ccc2nc(NC(=O)COc3cc4cc(c3)Oc3cc(c([N+](=O)[O-])cc3[N+](=O)[O-])Oc3cc(OCC(=O)Nc5nc6ccc(OC)cc6s5)cc(c3)Oc3cc(c([N+](=O)[O-])cc3[N+](=O)[O-])O4)sc2c1"
test_readout = "MIC"
readout_unit = "µg/mL"
assay_value = 3.12

[[record]]
chemical_smiles = "O=C(COc1cc2cc(c1)Oc1cc(c([N+](=O)[O-])cc1[N+](=O)[O-])Oc1cc(OCC(=O)Nc3nc4ccc(Cl)cc4s3)cc(c1)Oc1cc(c([N+](=O)[O-])cc1[N+](=O)[O-])O2)Nc1nc2ccc(Cl)cc2s1"
test_readout = "MIC"
readout_unit = "µg/mL"
assay_value = 3.12


Okay, now this molecule:
Qu. # input molecule: "O=C(COc1cc2cc(c1)Oc1cc(c([N+](=O)[O-])cc1[N+](=O)[O-])Oc1cc(OCC(=O)N(c3ccccc3)c3ccccc3)cc(c1)Oc1cc(c([N+](=O)[O-])cc1[N+](=O)[O-])O2)N(c1ccccc1)c1ccccc1" ; wanted: its MIC
Ans. 3.12
